Task for the reader: assign each of the following molecules its reported IC50.
# Test system: PC-3
# TEST_METHOD_NOTES: cells
# REPORTED_CONDITIONS: Homo sapiens, PC-3, 48 h

## Task Checklist item: IC50 tested on PC-3, entry `O=C(O)Cn1nnc(-c2cn(-c3ccccc3)nc2-c2ccccc2Cl)n1` , value?
## Result 6.43 to 18.2 µM

## Task Checklist item: IC50 tested on PC-3, entry `Cc1ccc(-c2nn(-c3ccccc3)cc2-c2nnn(CC(=O)O)n2)cc1` , value?
## Result 7.23 to 48.3 µM

## Task Checklist item: IC50 tested on PC-3, entry COc1cccc2c1C(=O)c1c(O)c3c(c(O)c1C2=O)C[C@@](O)(C(=O)CO)C[C@@H]3O[C@H]1C[C@H](N)[C@H](O)[C@H](C)O1 [DOXORUBICIN] , value?
## Result 3.86 µM

## Task Checklist item: IC50 tested on PC-3, entry `O=C(O)Cn1nnc(-c2cn(-c3ccccc3)nc2-c2ccc(Cl)cc2)n1` , value?
## Result 9.83 µM

## Task Checklist item: IC50 tested on PC-3, entry `COc1ccc(-c2nn(-c3ccccc3)cc2-c2nnn(CC(=O)O)n2)cc1` , value?
## Result 7.23 to 48.3 µM

## Task Checklist item: IC50 tested on PC-3, entry `O=C(O)Cn1nnc(-c2cn(-c3ccccc3)nc2-c2ccccc2)n1` , value?
## Result 70.2 µM

## Task Checklist item: IC50 tested on PC-3, entry `COc1ccccc1-c1nn(-c2ccccc2)cc1-c1nnn(CC(=O)O)n1` , value?
## Result 7.23 to 48.3 µM

* * *

# Test system: HCT-116
# TEST_METHOD_NOTES: Cytotoxicity against human HCT116 cells
# Type: functional, cell-based
PROPERTY: IC50

## Task For `COc1cc(/C=C/C(=O)c2ccccc2OC)ccc1Oc1nnnn1-c1ccccc1` , what is its reported IC50?
## Result 2.5 to 7 µg/mL

## Task For `COc1cc(/C=C/C(=O)c2ccc(Br)cc2)ccc1Oc1nnnn1-c1ccccc1` , what is its reported IC50?
## Result 2.5 to 7 µg/mL

## Task For `COc1cc(/C=C/C(=O)c2ccc(Cl)cc2)ccc1Oc1nnnn1-c1ccccc1` , what is its reported IC50?
## Result 2.5 to 7 µg/mL

## Task For `COc1cc(/C=C/C(=O)c2ccc(F)cc2)ccc1Oc1nnnn1-c1ccccc1` , what is its reported IC50?
## Result 2.5 to 7 µg/mL

## Task For `O=c1[nH]cc(F)c(=O)[nH]1` , what is its reported IC50?
## Result 17.3 µg/mL

## Task For `COc1cc(/C=C/C(=O)c2ccc(C)cc2)ccc1Oc1nnnn1-c1ccccc1` , what is its reported IC50?
## Result 2.5 to 7 µg/mL

## Task For `COc1cc(/C=C/C(=O)c2ccco2)ccc1Oc1nnnn1-c1ccccc1` , what is its reported IC50?
## Result 2.5 to 7 µg/mL

## Task For `COc1ccc(C(=O)/C=C/c2ccc(Oc3nnnn3-c3ccccc3)cc2)cc1OC` , what is its reported IC50?
## Result 3.7 µg/mL

## Task For `COc1ccc(C(=O)/C=C/c2ccc(Oc3nnnn3-c3ccccc3)c(OC)c2)cc1OC` , what is its reported IC50?
## Result 1.6 µg/mL

## Task For `O=C(/C=C/c1ccccc1Oc1nnnn1-c1ccccc1)c1ccccc1` , what is its reported IC50?
## Result 0.6 µg/mL

## Task For `COc1cc(/C=C/C(=O)c2cccs2)ccc1Oc1nnnn1-c1ccccc1` , what is its reported IC50?
## Result 2.5 µg/mL
